Measured solubility at 0.25 h accompanies every entry in the list below.
Assay: Aqueous solubility of the compound in PBS at pH 7.4 after 15 mins by HPLC method
Assay type: physicochemical
The answer is to be given in µM; state only the numeric part.

• COc1ccc(OC[C@@]2(c3ccccc3)C[C@H]2C(=O)Nc2nc(C)cs2)cc1OC = 11
• COc1ccc(OC[C@@]2(c3ccccc3)C[C@H]2C(=O)Nc2cc(C#N)ccn2)cc1OC = 10
• COc1ccc(OC[C@@]2(c3ccccc3)C[C@H]2C(=O)Nc2ccc(C#N)cn2)cc1OC (racemic) = 22

// query Fill in reported solubility at 0.25 h for this entry: COc1ccc(OCC2(c3ccccc3)CC2C(=O)Nc2ccc(C#N)cn2)cc1OC (single isomer, unassigned; (-))
// result 15

====

Test: Plasma concentration in C57BL/6N mouse at 100 mg/kg, po after 1 hr
Type: ADME, organism-based
Parameters: dose 100 mg/kg, route oral
RECORDED_ENDPOINT: concentration at 1 h

// query Indicate its recorded concentration at 1 h; the compound in question is COc1ccc(OCC2(c3ccccc3)CC2C(=O)Nc2ccc(C#N)cn2)cc1OC (single isomer, unassigned; (-))
// result 9.9 µM

====

Target: UniProtKB O43614
Sequence (O43614 whole entry): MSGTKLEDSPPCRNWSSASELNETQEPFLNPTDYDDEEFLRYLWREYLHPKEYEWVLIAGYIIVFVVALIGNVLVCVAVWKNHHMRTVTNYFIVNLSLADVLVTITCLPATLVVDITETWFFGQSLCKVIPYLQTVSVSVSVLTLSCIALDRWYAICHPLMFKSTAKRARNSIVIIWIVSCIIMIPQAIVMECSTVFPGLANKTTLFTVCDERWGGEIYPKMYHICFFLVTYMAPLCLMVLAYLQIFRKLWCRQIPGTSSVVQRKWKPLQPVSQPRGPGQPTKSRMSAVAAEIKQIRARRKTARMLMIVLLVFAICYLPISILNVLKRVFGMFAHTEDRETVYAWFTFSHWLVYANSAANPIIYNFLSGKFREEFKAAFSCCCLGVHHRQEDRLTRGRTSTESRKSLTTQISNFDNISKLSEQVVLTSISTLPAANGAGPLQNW
RECORDED_ENDPOINT: pKi
Scale: pKi equals -log10([C]), with [C] in mol/L.

# count of solved cases: 3
- COc1ccc(OC[C@@]2(c3ccccc3)C[C@H]2C(=O)Nc2cc(C#N)ccn2)cc1OC: 7.47
- COc1ccc(OC[C@@]2(c3ccccc3)C[C@H]2C(=O)NC2CCCCC2)cc1OC: 5.11
- COc1ccc(OC[C@@]2(c3ccccc3)C[C@H]2C(=O)Nc2ncc(C)s2)cc1OC: 7.46

// query Given the molecule COc1ccc(OC[C@@]2(c3ccccc3)C[C@H]2C(=O)Nc2ccncc2)cc1OC , write its reported pKi.
// result 7.07

// query Query pKi for COc1ccc(OC[C@@]2(c3ccccc3)C[C@H]2C(=O)c2ccccc2)cc1OC
// result 5.06

====

# Ki per entry
Biological target: Orexin/Hypocretin receptor type 1 (Homo sapiens, UniProt O43613)
Sequence (O43613 whole entry): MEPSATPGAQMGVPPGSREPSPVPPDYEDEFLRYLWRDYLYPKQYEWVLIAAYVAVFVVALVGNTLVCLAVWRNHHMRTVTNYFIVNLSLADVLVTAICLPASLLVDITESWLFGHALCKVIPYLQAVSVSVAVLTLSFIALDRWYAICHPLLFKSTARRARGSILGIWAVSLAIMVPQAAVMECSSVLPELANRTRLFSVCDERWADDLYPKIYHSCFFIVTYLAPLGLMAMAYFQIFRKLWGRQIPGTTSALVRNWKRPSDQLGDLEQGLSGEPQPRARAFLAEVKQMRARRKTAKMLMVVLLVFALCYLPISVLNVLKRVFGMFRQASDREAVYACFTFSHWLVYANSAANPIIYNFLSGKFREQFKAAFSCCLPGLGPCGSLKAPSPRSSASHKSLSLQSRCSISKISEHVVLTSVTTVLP

Some solved entries appear below for comparison.
- COc1ccc(OC[C@@]2(c3ccccc3)C[C@H]2C(=O)Nc2ncc(C)s2)cc1OC: 291 nM
- COc1ccc(OC[C@@]2(c3ccccc3)C[C@H]2C(=O)NC2CCCCC2)cc1OC: 2990 nM
- COc1ccc(OC[C@@]2(c3ccccc3)C[C@H]2C(=O)c2ccccc2)cc1OC: > 10000 nM
- COc1ccc([C@]2(COc3ccccc3)C[C@H]2C(=O)Nc2ccccn2)cc1OC: > 10000 nM
- COCc1cc(OC[C@@]2(c3ccccc3)C[C@H]2C(=O)Nc2ccccn2)ccc1OC: 747 nM
- COc1ccc(OC[C@@]2(c3ccccc3)C[C@H]2C(=O)N2CCCc3ccccc32)cc1OC: > 10000 nM
- COc1ccc(OC[C@@]2(c3ccccc3)C[C@H]2C(=O)Nc2cccnc2)cc1OC: 206 nM
- COc1ccc(OC[C@@]2(c3ccccc3)C[C@H]2C(=O)Nc2ccccn2)cc1OC: 1070 nM

// query For Orexin/Hypocretin receptor type 1 (Homo sapiens, UniProt O43613), give the measured Ki of the entry COc1ccc(OC[C@@]2(c3ccccc3)C[C@H]2C(=O)Nc2cc(C)on2)cc1OC
// result 505 nM

// query Recall the reported Ki of COc1ccc(OCC2(c3ccccc3)CC2C(=O)Nc2ccc(C#N)cn2)cc1OC (single isomer, unassigned; (-)) on Orexin/Hypocretin receptor type 1 (Homo sapiens, UniProt O43613) and write it down.
// result 106 nM

// query Identify measured Ki obtained with Orexin/Hypocretin receptor type 1 (Homo sapiens, UniProt O43613) for COc1ccc(OC[C@@]2(c3ccccc3)C[C@H]2C(=O)Nc2ccccn2)cc1 .
// result 5540 nM

// query Provide Ki, system Orexin/Hypocretin receptor type 1 (Homo sapiens, UniProt O43613), entry O=C(Nc1ccccn1)[C@@H]1C[C@@]1(COc1ccccc1)c1ccccc1
// result 6840 nM

// query Print Orexin/Hypocretin receptor type 1 (Homo sapiens, UniProt O43613) Ki for COc1ccc(OC[C@@]2(c3ccccc3)C[C@H]2C(=O)Nc2ccc(C#N)cn2)cc1OC (racemic) .
// result 123 nM

====

Experiment: Drug uptake in CSF of C57BL/6N mouse at 100 mg/kg, po after 1 hr
Assay type: ADME, organism-based, Cerebrospinal fluid
Design: dose 100 mg/kg, route oral
Conditions: read-out: Drug uptake
RECORDED_ENDPOINT: concentration at 1 h (nM)
The reply should be a number in nM, with the unit left off.

// query Complete the entry with concentration at 1 h for COc1ccc(OCC2(c3ccccc3)CC2C(=O)Nc2ccc(C#N)cn2)cc1OC (single isomer, unassigned; (-))
// result 245

====

Assay: Plasma concentration in C57BL/6N mouse at 100 mg/kg, po after 3 hrs
Format: ADME, organism-based
Parameters: dose 100 mg/kg, route oral
RECORDED_ENDPOINT: concentration at 3 h (µM)
Give just the numeric value; µM need not be written.

// query Find the measured concentration at 3 h of COc1ccc(OCC2(c3ccccc3)CC2C(=O)Nc2ccc(C#N)cn2)cc1OC (single isomer, unassigned; (-)) and report it.
// result 3.74

====

Target: Orexin receptor type 2 (Homo sapiens, UniProt O43614)
Sequence (O43614 whole entry): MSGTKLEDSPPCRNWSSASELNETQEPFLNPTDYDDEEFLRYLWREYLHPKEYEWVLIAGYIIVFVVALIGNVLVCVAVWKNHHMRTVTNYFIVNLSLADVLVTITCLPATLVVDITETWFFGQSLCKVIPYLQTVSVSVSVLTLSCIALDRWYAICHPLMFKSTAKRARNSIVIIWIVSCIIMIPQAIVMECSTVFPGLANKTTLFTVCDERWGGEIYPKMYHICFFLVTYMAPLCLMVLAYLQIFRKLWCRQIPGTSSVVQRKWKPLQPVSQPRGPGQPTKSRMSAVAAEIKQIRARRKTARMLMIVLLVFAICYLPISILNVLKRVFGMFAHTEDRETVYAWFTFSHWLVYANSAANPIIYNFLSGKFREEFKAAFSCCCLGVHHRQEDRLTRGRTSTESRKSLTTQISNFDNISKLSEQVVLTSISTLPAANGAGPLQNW
RECORDED_ENDPOINT: Ki

Known Ki results, listed for orientation:
* COc1ccc(OC[C@@]2(c3ccccc3)C[C@H]2C(=O)Nc2ccccn2)cc1 | 588 nM
* COc1ccc(OC[C@@]2(c3ccccc3)C[C@H]2C(=O)Nc2ccccn2)cc1OC | 36 nM
* COCc1cc(OC[C@@]2(c3ccccc3)C[C@H]2C(=O)Nc2ccccn2)ccc1OC | 384 nM

Alright, here's another compound for you.
// query Supply reported Ki belonging to this compound: COc1ccc(OC[C@@]2(c3ccccc3)C[C@H]2CNc2ccccc2)cc1OC
// result 4230 nM
